Field: viability, T/C. Provide a value for each of the molecules that follow.
system: 855422-203-R-J1-PDC complex spheroid viability; assay: Anticancer human tumor 855422-203-R-J1-PDC patient-derived bladder carcinoma cell line growth inhibition [POLQ]; details: second compound 10 µM; first compound 0.0316 µM; stronger effect = lower value

Worked examples follow.
Molecule	viability, T/C
CCCS(=O)(=O)Nc1ccc(F)c(C(=O)c2c[nH]c3ncc(-c4ccc(Cl)cc4)cc23)c1F + COC1C(OC(N)=O)C(O)C(Oc2ccc3c(O)c(NC(=O)c4ccc(O)c(CC=C(C)C)c4)c(=O)oc3c2C)OC1(C)C	108%
CCCS(=O)(=O)Nc1ccc(F)c(C(=O)c2c[nH]c3ncc(-c4ccc(Cl)cc4)cc23)c1F + Cc1cccc(N(C)C(=O)C2C(O)CCN2c2nc(C)cc(C(F)(F)F)c2C#N)c1	109%
COc1ccc([C@@H](O)c2cc(-c3ncnc4cc(N5CCOCC5)ccc34)c(F)cc2Cl)nn1 + Cc1cccc(N(C)C(=O)C2C(O)CCN2c2nc(C)cc(C(F)(F)F)c2C#N)c1	96.4%
C#Cc1c(F)ccc2cc(O)cc(-c3ncc4c(N5CC6CCC(C5)N6)nc(OCC56CCCN5CC(F)C6)nc4c3F)c12 (stereo not given) + COC1C(OC(N)=O)C(O)C(Oc2ccc3c(O)c(NC(=O)c4ccc(O)c(CC=C(C)C)c4)c(=O)oc3c2C)OC1(C)C	102%
CCc1cc2c(N3CCc4c(cc(Cn5ccnc5)cc4-c4cn(C)nc4C(F)(F)F)C3=O)cc(C)nc2c(OC)n1 + Nc1ccc(C#CCN(C(=O)Cc2ncc(C(F)(F)F)cc2C(F)(F)F)c2ccc(F)cc2)nn1	116%
COc1ccc([C@@H](O)c2cc(-c3ncnc4cc(N5CCOCC5)ccc34)c(F)cc2Cl)nn1 + Nc1ccc(C#CCN(C(=O)Cc2ncc(C(F)(F)F)cc2C(F)(F)F)c2ccc(F)cc2)nn1	92.3%

Would you be so kind as to report viability, T/C for each listed record?
1. CCc1cc2c(N3CCc4c(cc(Cn5ccnc5)cc4-c4cn(C)nc4C(F)(F)F)C3=O)ccnc2c(OC)n1 + Cc1cccc(N(C)C(=O)C2C(O)CCN2c2nc(C)cc(C(F)(F)F)c2C#N)c1
2. COc1cc2cc(C(=O)CCC(=O)O)sc2cc1OC + Nc1ccc(C#CCN(C(=O)Cc2ncc(C(F)(F)F)cc2C(F)(F)F)c2ccc(F)cc2)nn1
3. O=C(c1cc(Cc2n[nH]c(=O)c3ccccc23)ccc1F)N1CCN(C(=O)C2CC2)CC1 + Nc1ccc(C#CCN(C(=O)Cc2ncc(C(F)(F)F)cc2C(F)(F)F)c2ccc(F)cc2)nn1
4. CC(C)n1c(=O)n(C)c2cnc3cc(F)c(-c4ccc(OCCCN5CCCCC5)nc4)cc3c21 + Nc1ccc(C#CCN(C(=O)Cc2ncc(C(F)(F)F)cc2C(F)(F)F)c2ccc(F)cc2)nn1

["116%", "92.8%", "99.4%", "104%"]

###

Tested on: 855422-203-R-J1-PDC complex spheroid viability
Assay: Anticancer human tumor 855422-203-R-J1-PDC cell line growth inhibition [POLQ]; active = viability on the fitted dose curve at most 10% of control; inactive = the rest;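 further: spheroids exposed to compounds for seven days before readout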
Details: second compound 0.0316 µM; first compound 10 µM
Experimental: Multicellular complex tumor spheroid response to Polymerase (POL) inhibitors (novobiocin, ART-558, RP6685) in combination with a variety of drugs and investigational agents in selected tumor cell lines The POL inhibitors (novobiocin, ART-558, and RP6685) were evaluated both individually and in combination with standard of care and investigational anticancer small molecules within a complex spheroid model of solid tumors. . […]
Allowed answers: active, inactive

These solved cases illustrate the format of a correct answer.
Molecule	Label Value
CC1COCCN1c1cc(C2(O)CC3CCC(C2)O3)c2cnn(-c3ccn[nH]3)c2n1 (stereo unspecified) + Nc1ccc(C#CCN(C(=O)Cc2ncc(C(F)(F)F)cc2C(F)(F)F)c2ccc(F)cc2)nn1	inactive
CC1COCCN1c1cc(C2(S(C)(=N)=O)CC2)nc(-c2ccnc3[nH]ccc23)n1 (stereo unspecified) + Nc1ccc(C#CCN(C(=O)Cc2ncc(C(F)(F)F)cc2C(F)(F)F)c2ccc(F)cc2)nn1	inactive

Record request — test call for COc1cccc2c1C(=O)c1c(O)c3c(c(O)c1C2=O)CC(O)(C(=O)CO)CC3OC1CC(N)C(O)C(C)O1 (stereo unspecified) + Cc1cccc(N(C)C(=O)C2C(O)CCN2c2nc(C)cc(C(F)(F)F)c2C#N)c1
active

Tell me the assay call for CC1COCCN1c1cc(-c2ccnn2C)c2ccnc(-c3ccn[nH]3)c2n1 (stereo unspecified) + Nc1ccc(C#CCN(C(=O)Cc2ncc(C(F)(F)F)cc2C(F)(F)F)c2ccc(F)cc2)nn1 please.
inactive

Test call for this molecule, please: CNCc1ccc(-c2[nH]c3cc(F)cc4c3c2CCNC4=O)cc1 + Nc1ccc(C#CCN(C(=O)Cc2ncc(C(F)(F)F)cc2C(F)(F)F)c2ccc(F)cc2)nn1
inactive

###

test system: 855422-203-R-J1-PDC complex spheroid viability; assay: Anticancer human tumor 855422-203-R-J1-PDC cell line growth inhibition [POLQ]; conditions: second compound 0.1 µM; first compound 3.16 µM; stronger effect = lower value;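 further: spheroids exposed to compounds for seven days before readout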
Please respond with reported viability, T/C for every item in the list.
One number for each entry, in %.

Solved entries (count: 3):
Molecule	viability, T/C, %
CNCc1ccc(-c2[nH]c3cc(F)cc4c3c2CCNC4=O)cc1 + Nc1ccc(C#CCN(C(=O)Cc2ncc(C(F)(F)F)cc2C(F)(F)F)c2ccc(F)cc2)nn1	99.2
CCc1cc2c(N3CCc4c(cc(Cn5ccnc5)cc4-c4cn(C)nc4C(F)(F)F)C3=O)ccnc2c(OC)n1 + Cc1cccc(N(C)C(=O)C2C(O)CCN2c2nc(C)cc(C(F)(F)F)c2C#N)c1	79.6
CC1COCCN1c1cc(C2(S(C)(=N)=O)CC2)nc(-c2ccnc3[nH]ccc23)n1 (centres undefined) + Cc1cccc(N(C)C(=O)C2C(O)CCN2c2nc(C)cc(C(F)(F)F)c2C#N)c1	41.1

Consider the additional molecule presented here.
Looking up CCCS(=O)(=O)Nc1ccc(F)c(C(=O)c2c[nH]c3ncc(-c4ccc(Cl)cc4)cc23)c1F + Cc1cccc(N(C)C(=O)C2C(O)CCN2c2nc(C)cc(C(F)(F)F)c2C#N)c1 , I see its viability, T/C listed as 121

###

system: 855422-203-R-J1-PDC complex spheroid viability; experiment: Anticancer human tumor 855422-203-R-J1-PDC cell line growth inhibition [POLQ]; conditions: second compound 10 µM; first compound 1 µM; active = viability on the fitted dose curve at most 10% of control; inactive = the rest;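 further: spheroids exposed to compounds for seven days before readout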
Classes to choose from: Yes (active), No (inactive)

Sample answers from the record:
Molecule	Assayed System	Label Value
C#Cc1c(F)ccc2cc(O)cc(-c3ncc4c(N5CC6CCC(C5)N6)nc(OCC56CCCN5CC(F)C6)nc4c3F)c12 (stereo not given) + Nc1ccc(C#CCN(C(=O)Cc2ncc(C(F)(F)F)cc2C(F)(F)F)c2ccc(F)cc2)nn1	855422-203-R-J1-PDC complex spheroid viability	No
COc1cccc2c1C(=O)c1c(O)c3c(c(O)c1C2=O)CC(O)(C(=O)CO)CC3OC1CC(N)C(O)C(C)O1 (stereo not given) + Nc1ccc(C#CCN(C(=O)Cc2ncc(C(F)(F)F)cc2C(F)(F)F)c2ccc(F)cc2)nn1	855422-203-R-J1-PDC complex spheroid viability	Yes
C=CCn1c(=O)c2cnc(Nc3ccc(N4CCN(C)CC4)cc3)nc2n1-c1cccc(C(C)(C)O)n1 + COC1C(OC(N)=O)C(O)C(Oc2ccc3c(O)c(NC(=O)c4ccc(O)c(CC=C(C)C)c4)c(=O)oc3c2C)OC1(C)C	855422-203-R-J1-PDC complex spheroid viability	No
COc1cc(C2c3cc4c(cc3C(OC3OC5COC(C)OC5C(O)C3O)C3COC(=O)C23)OCO4)cc(OC)c1O (stereo not given) + Cc1cccc(N(C)C(=O)C2C(O)CCN2c2nc(C)cc(C(F)(F)F)c2C#N)c1	855422-203-R-J1-PDC complex spheroid viability	Yes
COc1cc2cc(C(=O)CCC(=O)O)sc2cc1OC + COC1C(OC(N)=O)C(O)C(Oc2ccc3c(O)c(NC(=O)c4ccc(O)c(CC=C(C)C)c4)c(=O)oc3c2C)OC1(C)C	855422-203-R-J1-PDC complex spheroid viability	No

// outcome(item) with item = O=C(Nc1ccc(O)c(NS(=O)(=O)c2ccc(F)cc2)c1)c1ccc(-c2ccccc2)cc1 + COC1C(OC(N)=O)C(O)C(Oc2ccc3c(O)c(NC(=O)c4ccc(O)c(CC=C(C)C)c4)c(=O)oc3c2C)OC1(C)C
No

Give the logged outcome of this assay for the following molecule: C=CC(=O)N1CCN(c2nc(=O)n(-c3c(C)ccnc3C(C)C)c3nc(-c4c(O)cccc4F)c(F)cc23)C(C)C1 (stereo not given) + Cc1cccc(N(C)C(=O)C2C(O)CCN2c2nc(C)cc(C(F)(F)F)c2C#N)c1
No

###

system: 855422-203-R-J1-PDC complex spheroid viability; assay: Anticancer human tumor 855422-203-R-J1-PDC cell line growth inhibition [POLQ]; settings: curve of first compound; second compound 1 µM;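 further: spheroids exposed to compounds for seven days before readout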
Quantity Kind: IC50 (nM)
Answers are plain numbers, in nM.

Solved cases (4 shown):
Compound	Units Label	IC50
CCc1cc2c(N3CCc4c(cc(Cn5ccnc5)cc4-c4cn(C)nc4C(F)(F)F)C3=O)cc(C)nc2c(OC)n1 + COC1C(OC(N)=O)C(O)C(Oc2ccc3c(O)c(NC(=O)c4ccc(O)c(CC=C(C)C)c4)c(=O)oc3c2C)OC1(C)C	nM	1750
CCc1cc2c(N3CCc4c(cc(Cn5ccnc5)cc4-c4cn(C)nc4C(F)(F)F)C3=O)cc(C)nc2c(OC)n1 + Nc1ccc(C#CCN(C(=O)Cc2ncc(C(F)(F)F)cc2C(F)(F)F)c2ccc(F)cc2)nn1	nM	6400
CC[C@@]1(O)C(=O)OCc2c1cc1n(c2=O)Cc2cc3c(CN(C)C)c(O)ccc3nc2-1 + Cc1cccc(N(C)C(=O)C2C(O)CCN2c2nc(C)cc(C(F)(F)F)c2C#N)c1	nM	26.5
O=c1[nH]cc(F)c(=O)[nH]1 + COC1C(OC(N)=O)C(O)C(Oc2ccc3c(O)c(NC(=O)c4ccc(O)c(CC=C(C)C)c4)c(=O)oc3c2C)OC1(C)C	nM	489

Now for a further compound.
// IC50 (855422-203-R-J1-PDC complex spheroid viability) for CCCS(=O)(=O)Nc1ccc(F)c(C(=O)c2c[nH]c3ncc(-c4ccc(Cl)cc4)cc23)c1F + Cc1cccc(N(C)C(=O)C2C(O)CCN2c2nc(C)cc(C(F)(F)F)c2C#N)c1 = 6040
